Would you kindly list IC50 for each of these molecules?
molecular target: 5-HT3 receptor (Mus musculus, UniProt P23979); construct: an immortal cell line that expresses 5-HT3 receptors at a high density; endogenous in cells; host or cells: NCB-20 cells (mouse neuroblastoma × Chinese hamster brain hybrid); assay: Whole-cell patch clamp, co-application of estrogen with 5-HT (0.5 μM); open conformation, high affinity site; format: cell-based, mouse neuroblastoma×Chinese hamster brain cell line (NCB-20)
Sequence (P23979 24-489): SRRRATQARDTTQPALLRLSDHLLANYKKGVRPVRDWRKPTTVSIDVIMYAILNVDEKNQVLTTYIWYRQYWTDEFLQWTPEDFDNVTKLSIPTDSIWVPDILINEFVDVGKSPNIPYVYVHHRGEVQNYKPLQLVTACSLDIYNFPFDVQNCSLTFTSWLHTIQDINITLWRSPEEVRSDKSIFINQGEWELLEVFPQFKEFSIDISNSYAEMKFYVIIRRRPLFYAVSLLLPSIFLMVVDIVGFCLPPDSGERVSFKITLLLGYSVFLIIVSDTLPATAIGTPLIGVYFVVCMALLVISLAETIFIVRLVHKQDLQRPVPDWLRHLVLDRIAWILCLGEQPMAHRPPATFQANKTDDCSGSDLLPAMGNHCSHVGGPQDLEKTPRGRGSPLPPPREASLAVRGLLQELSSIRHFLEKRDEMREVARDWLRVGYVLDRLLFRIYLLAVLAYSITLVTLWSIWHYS
Give bare numbers, in µM.

Quick one: give me IC50 for each item below, same order please.
1. C[C@]12CC[C@@H]3c4ccc(O)cc4CC[C@H]3[C@@H]1CCC2=O [estrone, 3-hydroxyestra-1,3,5(10)-trien-17-one]
2. C[C@]12CC[C@@H]3c4ccc(O)cc4CC[C@H]3[C@@H]1C[C@@H](O)[C@@H]2O

## Result
1: 0.0015; 2: 22

###

biological target: 5-HT3 receptor (Mus musculus, UniProt P23979); construct: an immortal cell line that expresses 5-HT3 receptors at a high density; endogenous in cells; host or cells: NCB-20 cells (mouse neuroblastoma × Chinese hamster brain hybrid); assay: Whole-cell patch clamp, estrogen applied before 5-HT (10 μM); closed conformation, low affinity site; assay type: cell-based, mouse neuroblastoma×Chinese hamster brain cell line (NCB-20)
PROPERTY: pIC50
One number for each entry, as −log10 of the molar value.

## Task Please give the measured pIC50 for this molecule: C[C@]12CC[C@@H]3c4ccc(O)cc4CC[C@H]3[C@@H]1CCC2=O [estrone, 3-hydroxyestra-1,3,5(10)-trien-17-one]
## Result 6.52

FYI, the data here is from patent US6239122A.
